MEASURED QUANTITY: melting point

INSERT INTO assay_data (molecule, value_reported) VALUES
  ('CCO/C=C/C(=O)Nc1ccc(Br)cc1C', '163 to 164 °C'),
  ('CCCC1=C(C(=O)OCC)C(c2ccccc2OC(C)C)c2c[nH]nc2N1 (stereo unspecified)', '210 °C'),
  ('CNc1c(F)cc2c(=O)c(C(=O)O)cn(-c3cc(N)c(F)cc3F)c2c1C', '225 to 228 °C'),
  ('O=c1[nH]c2ncc(-c3ccc(CO)cc3)nc2n1CC1CCCCC1', '275 to 277 °C'),
  ('O=C1NC(=O)C2(CCOC2)N1 (stereo unspecified)', '202 to 204 °C'),
  ('CSc1ccc(-c2oncc2C(=O)C2CC2)nc1', '103 to 104 °C'),
  ('O=C(O)c1cc2ccccc2nc1N[C@H](Cc1ccccc1)C(=O)O', '140 to 142 °C'),
  ('CS(=O)c1ccc(COc2cccc(C(=O)Nc3ccc(C#N)cc3)c2)cc1 (stereo unspecified)', '174 to 175 °C'),
  ('CC(C)(C)Nc1c(NCc2ccc(C(F)(F)F)cc2)c(=O)c1=O', '306 to 308 °C'),
  ('COc1cccc(Nc2n[nH]c3ncnc(Nc4cccc(Cl)c4)c23)c1', '202 to 203 °C'),
  ('CCOCCn1c(CCl)nc2ccccc21', '75.5 to 77 °C');

###

melting point values by entry
MEASURED QUANTITY: melting point

INSERT INTO measurements (compound, measured_quantity, value_reported) VALUES
  ('CCN1CCN(CC)c2cc(Nc3nc(Cl)ncc3Cl)ccc2C1=O', 'melting point', '71 to 74 °C'),
  ('C=CCOc1ccc2c(c1)c(-c1cc3cccnc3n1S(=O)(=O)c1ccc(C)cc1)cn2C', 'melting point', '257 to 259 °C'),
  ('CCCOc1ccc(CO)nc1OCc1ccccc1', 'melting point', '50 to 51 °C'),
  ('CN1C(=O)CCC1c1cncc(Br)c1 (configuration not stated)', 'melting point', '85 to 87 °C'),
  ('CC(=O)Nc1nc(C(N)=O)cs1', 'melting point', '> 250 °C'),
  ('CCOC(=O)/C=C/c1cnc(Cl)nc1', 'melting point', '125 to 127 °C'),
  ('Cc1c(C)c(C2CC(=O)C=C(O)C2)c(Cl)c2c1CCO2 (configuration not stated)', 'melting point', '224 °C'),
  ('NC(=O)NC(=O)c1coc2ccccc2c1=O', 'melting point', '200 to 217 °C'),
  ('O=C(c1ccc(Cl)cc1)c1cccc(CBr)c1', 'melting point', '123 to 125 °C'),
  ('O=C(O)c1cn(-c2ccccc2)c2c(F)c(F)c(F)cc2c1=O', 'melting point', '88 to 90 °C'),
  ('Nc1c(OCCCl)cccc1[N+](=O)[O-]', 'melting point', '71 to 73 °C'),
  ('CS(=O)c1ccc2ncn(C=CC(=O)O)c(=O)c2c1 (configuration not stated)', 'melting point', '275 to 276 °C'),
  ('CC(C)(C)c1cc(CCc2ccccc2NC(=O)NC2CCN(Cc3cccnc3)CC2)cc(C(C)(C)C)c1O', 'melting point', '156 to 158 °C'),
  ('O=c1cc(-c2cnccn2)ss1', 'melting point', '181 °C'),
  ('COc1cc2c(c3c1OC(C)(C)C3)C(c1cccc(NC(C)=O)c1)=NC(C)(C)C2', 'melting point', '246 to 247 °C'),
  ('CCCCCCc1ccc(C(=O)Oc2ccc(C(=O)O)cc2)cc1', 'melting point', '162 °C'),
  ('Cc1ccc([N+](=O)[O-])c2c1C(N1C(=O)c3ccccc3C1=O)CCC2=O (configuration not stated)', 'melting point', '220 to 230 °C'),
  ('CCOCc1nc2c(N)nc3cc(N4CCOCC4)ccc3c2n1CCCOC(C)C', 'melting point', '161 to 162 °C'),
  ('c1ccc2c(c1)nc1c3c(onc32)CCC1', 'melting point', '149 to 150 °C'),
  ('N#CCOc1ccc(CCNC(=O)OCc2ccccc2)cc1', 'melting point', '110 to 115 °C'),
  ('Cc1nc(-c2ccc(Cl)cc2)c2nc(-c3ccccc3)cc-2[nH]1', 'melting point', '281 to 283 °C'),
  ('COc1c(Nc2ncc(Cl)c(Nc3ccccc3S(=O)(=O)N3CCCC3)n2)ccc2c1CCCC(NCCO)C2 (configuration not stated)', 'melting point', '79 to 82 °C');

###

melting point values by entry
MEASURED QUANTITY: melting point

INSERT INTO results (compound, value_reported) VALUES
  ('COc1ccccc1-c1ccc2cnc(Nc3ccc4c(c3)N3CCC4CC3)nn12', '89 to 95 °C'),
  ('CCOC1=NS(=O)(=O)c2cc(NC(=O)CC)ccc21', '188 to 192 °C'),
  ('CS(=O)(=O)Nc1cnn(CCCCN2CCN(c3ncccn3)CC2)c1', '132 °C'),
  ('CCOC(=O)c1cccc2oc(C=O)cc12', '88 to 89 °C'),
  ('CCCc1c(OCc2cccc(C(=O)O)c2)ccc(C(C)=O)c1O', '216 to 220 °C'),
  ('CC(C)NC(=O)C(=O)c1ccc(Cl)cc1', '79 °C');

###

MEASURED QUANTITY: melting point

INSERT INTO measurements (compound, measured_quantity, value_reported) VALUES
  ('N#Cc1cc2nc(O)c(O)nc2cc1C(F)(F)F', 'melting point', '> 300 °C'),
  ('CN1CCc2cc(S(=O)(=O)Nc3cnc4cc(Cl)ccc4n3)ccc21', 'melting point', '189 to 190 °C'),
  ('COc1cc(Cl)cc2c1OC(COS(=O)(=O)c1ccc(C)cc1)C2 (stereo not given)', 'melting point', '99 to 102 °C'),
  ('COC1=Cc2cc(Cl)ccc2C(O)(C2CCN(C)CC2)c2ccsc21 (stereo not given)', 'melting point', '223 to 227 °C'),
  ('CC(C)(c1ccc(Oc2cccc([N+](=O)[O-])c2)cc1)c1ccc(Oc2cccc([N+](=O)[O-])c2)cc1', 'melting point', '111 to 113 °C'),
  ('Cc1ncccc1COc1ccc2cc(Cn3cc(CCC(=O)O)c(-c4ccccc4)c3)ccc2c1', 'melting point', '163 to 164 °C'),
  ('CC1=C2OCOC2CC(C)(C)C1=O (stereo not given)', 'melting point', '55.5 to 57 °C'),
  ('Nc1ncc2cc(-c3c(Cl)cccc3Cl)c(=O)n(Cc3c(Cl)cccc3Cl)c2n1', 'melting point', '274 to 276 °C'),
  ('CC1CCc2c(c(-c3ccccc3)nc(=O)n2C(C)C)C1 (stereo not given)', 'melting point', '175 to 177 °C'),
  ('CN1C(=O)[C@@H](NC(=O)C2CCCCC2)N=C(c2ccccc2)c2ccccc21', 'melting point', '212 to 214 °C'),
  ('COc1cc(OC)nc(O[C@H]2CCCC[C@H]2C(=O)O)n1 (relative stereo)', 'melting point', '151 to 152 °C'),
  ('O=C(Nc1ccc(Oc2ccnc(NCC3OCCO3)n2)c2ccccc12)c1cc(F)cc(N2CCCCC2)c1', 'melting point', '96 to 98 °C'),
  ('C=C1CSC2C(NC(=O)OC(C)(C)C)C(=O)N2C1C(=O)OC(c1ccccc1)c1ccccc1 (stereo not given)', 'melting point', '135 to 137 °C'),
  ('COc1cccc2c1CCC1C(=O)N(C(C)c3ccccc3)C(=O)C21 (stereo not given)', 'melting point', '101 to 103 °C'),
  ('CC(C)c1ccc2c(c1)OCc1ccc(C(=O)O)cc1C2=O', 'melting point', '203 to 204 °C'),
  ('O=Cc1ccc2c(c1)c1ccccc1n2CCCCCCCCCCn1c2ccccc2c2cc(C=O)ccc21', 'melting point', '122 °C'),
  ('NC(=O)c1c(NC(=O)C2CC2)sc2c1CCCC2=O', 'melting point', '203 to 205 °C'),
  ('COP(=S)(OC)Oc1nsc(C)c1C#N', 'melting point', '52 °C'),
  ('Cc1ccc2nc(-c3ccc(Cl)cc3)c(CN3CCCC3=O)n2c1', 'melting point', '186 to 188 °C'),
  ('COC(=O)c1ccc(CNC(=O)c2[nH]c(-c3cccs3)cc2-c2ccc(F)cc2)nc1', 'melting point', '174 to 176 °C');

###

MEASURED QUANTITY: melting point (°C)

INSERT INTO results (molecule, value_reported) VALUES
  ('NS(=O)(=O)c1ccc(-c2noc(-c3cnn4c(C(F)F)cc(-c5ccc(Cl)cc5)nc34)n2)s1', 259),
  ('O=[N+]([O-])c1cc(Cl)c(Oc2cc(Cl)c(Br)cc2Cl)cc1NCc1ccccc1', 157),
  ('OP(O)C(NC(c1ccccc1)c1ccccc1)c1c[nH]c2ccccc12 (stereo not given)', 154),
  ('CCOC(=Cc1ccc(-c2cccc(N(C)C(=O)Nc3ccc(C)cc3)c2)cc1)C(=O)O', 92);
